Target: T1, CEACAM5 (R&D Systems, 4128-CM-050) (human, UniProt P06731 35-685)
T1 construct: Immobilised on the ELISA plate; also called human CEACAM5
T1 sequence (looked up): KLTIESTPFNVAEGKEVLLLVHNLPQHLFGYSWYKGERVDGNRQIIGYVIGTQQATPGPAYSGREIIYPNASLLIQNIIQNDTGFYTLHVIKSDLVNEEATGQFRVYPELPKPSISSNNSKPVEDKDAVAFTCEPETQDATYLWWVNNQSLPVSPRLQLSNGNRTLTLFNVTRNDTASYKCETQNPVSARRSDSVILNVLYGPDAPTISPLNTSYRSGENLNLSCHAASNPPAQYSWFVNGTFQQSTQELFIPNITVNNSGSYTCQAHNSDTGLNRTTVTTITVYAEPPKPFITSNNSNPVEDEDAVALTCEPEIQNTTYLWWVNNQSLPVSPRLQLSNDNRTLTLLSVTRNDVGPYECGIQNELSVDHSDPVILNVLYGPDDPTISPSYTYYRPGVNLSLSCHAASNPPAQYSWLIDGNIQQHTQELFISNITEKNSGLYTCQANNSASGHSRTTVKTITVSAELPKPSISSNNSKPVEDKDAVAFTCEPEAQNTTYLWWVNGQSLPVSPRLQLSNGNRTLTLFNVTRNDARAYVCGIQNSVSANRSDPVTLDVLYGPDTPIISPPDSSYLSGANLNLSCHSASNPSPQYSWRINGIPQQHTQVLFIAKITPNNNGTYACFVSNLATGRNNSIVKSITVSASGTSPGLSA
Assay: ELISA on immobilised CEACAM5, 4-parameter fit, duplicate
Known EC50 of a selection of binders

{"binder": "[Gd/4arm-DOTA-CH2-(1,4-Ph)-NH-C(═S)-NH-CH2-(1,3-Ph)-C(═O)-Met-Gly-Lys*-Z2(#S)]p-Fab^2 (Fab, V domains shown, labeling may sit on this chain; sites not stated; labeling portion (MW 1355) bound via 2-iminothiolane-treated amino groups of the Fab, sites and chain not stated; 1-2 per Fab by MS, also called Ex-No 40; Conjugate No. 40) VH: EVQLVESGGGLVQPGGSLRLSCAASGFNIRDTYMHWVRQAPGKGLEWVARIDPANGNSRYVPKFQGRFTISADTSRNTAYLQMNSLRAEDTAVYYCAPFGYYVSDYAMAYWGQGTLVTVSS VL: DIQLTQSPSSLSASVGDRVTITCRAGESVDIFGVGFLHWYQQKPGKAPKLLIYRASNLESGIPSRFSGSGSRTDFTLTISSLQPEDFATYYCQQTNEDPYTFGQGTKVEIKR", "EC50 [nM]": 0.22}
{"binder": "(Y-S1-X)p-Fab^2 with Y Gd/DOTA, S1 - (bond), X -Gly-Lys*-C(═S)-NH-(1,4-Ph)-NH-C(═S)- (Fab, V domains shown, labeling may sit on this chain; sites not stated; labeling portion (MW 937) on amino groups of the Fab, sites and chain not stated; 1-2 per Fab by MS, also called Ex-No 1; conjugate 1) VH: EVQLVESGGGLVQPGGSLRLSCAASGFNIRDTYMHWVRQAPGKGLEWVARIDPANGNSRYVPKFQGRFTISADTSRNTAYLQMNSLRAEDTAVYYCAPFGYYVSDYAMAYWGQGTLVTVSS VL: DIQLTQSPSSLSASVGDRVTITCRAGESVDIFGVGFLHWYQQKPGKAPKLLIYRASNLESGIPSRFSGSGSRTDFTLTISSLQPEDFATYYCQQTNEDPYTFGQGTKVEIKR", "EC50 [nM]": 0.16}
{"binder": "(Y-S1-X)p-Fab^2 with Y Gd/DOTA, S1 - (bond), X -Gly-(naph-Ala)-Lys*-Z2(#S)- (Fab, V domains shown, labeling may sit on this chain; sites not stated; labeling portion (MW 1123) on amino groups of the Fab, sites and chain not stated; 1-2 per Fab by MS, also called Ex-No 31; conjugate 31) VH: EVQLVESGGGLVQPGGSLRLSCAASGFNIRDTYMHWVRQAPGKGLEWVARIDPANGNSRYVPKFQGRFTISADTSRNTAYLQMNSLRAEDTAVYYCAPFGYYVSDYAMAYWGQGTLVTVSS VL: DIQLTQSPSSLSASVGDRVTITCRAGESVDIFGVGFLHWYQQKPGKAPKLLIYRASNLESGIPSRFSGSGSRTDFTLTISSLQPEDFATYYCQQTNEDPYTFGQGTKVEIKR", "EC50 [nM]": 0.3}
{"binder": "(Y-S1-X)p-Fab^2 with Y Gd/DOTA, S1 - (bond), X -Gly-(diph-Ala)-Lys*-Z2(#S)- (Fab, V domains shown, labeling may sit on this chain; sites not stated; labeling portion (MW 1149) on amino groups of the Fab, sites and chain not stated; 1-3 per Fab by MS, also called Ex-No 30; conjugate 30) VH: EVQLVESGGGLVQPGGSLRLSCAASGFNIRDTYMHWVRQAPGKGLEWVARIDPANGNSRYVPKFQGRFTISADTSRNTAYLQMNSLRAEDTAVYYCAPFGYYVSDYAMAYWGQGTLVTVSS VL: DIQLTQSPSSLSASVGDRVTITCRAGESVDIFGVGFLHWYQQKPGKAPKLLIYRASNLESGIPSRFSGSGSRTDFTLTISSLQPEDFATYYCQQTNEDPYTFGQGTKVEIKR", "EC50 [nM]": 0.31}
